- System: HLA A2
- Format: binding, human
- cond: 100 μM peptide; RMA-S/A2 cells, peptide, anti-A2 Mab BB7.2 and secondary antibody; FACS mean
observation.type: Mean 2
Number only, please.

>>> print(df.to_string())
     input_sequence  assay_target  observation_type  reported_value
0  YLALDPDSV [CH48]        HLA A2            Mean 2             451

// sample ALWGHNVLL (listed as Chlamydia pneumoniae) [CH55] , its Mean 2 was 411

// sample NLAEQVTAL [CH43] , its Mean 2 was 439

// sample KMSHFQQAL [CH49] , its Mean 2 was 317
